B1: Azoarcus group I ribozyme (parent)
chain: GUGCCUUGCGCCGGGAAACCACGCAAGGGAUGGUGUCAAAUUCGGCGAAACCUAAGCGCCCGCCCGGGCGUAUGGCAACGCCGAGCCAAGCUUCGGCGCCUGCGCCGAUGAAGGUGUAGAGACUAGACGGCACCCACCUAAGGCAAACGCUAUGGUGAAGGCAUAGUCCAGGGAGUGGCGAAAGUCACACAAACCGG

- Variants of: B1
- experimental.protocol: reverse-splicing fitness (ratio to wild type); higher = more active; in vitro selection; Mg2+ level not given
I'd appreciate it if you could label each record using reverse-splicing fitness and these ranges: low-valued (below 0.006), mid-valued (0.006 to below 0.01), high-valued (0.01 or more)

{"mutation.list": "C82U A120U C150U C169U U176A", "label.class": "low-valued"}
{"mutation.list": "C82G A111C A120U U176A", "label.class": "high-valued"}
{"mutation.list": "C82U A111G A120U A145C C169G U176C", "label.class": "low-valued"}
{"mutation.list": "C82G A120C A145G C150U C169G U176G", "label.class": "low-valued"}
{"mutation.list": "C82G A120C A145G C150U C169U U176A", "label.class": "high-valued"}
{"mutation.list": "C82U A111G A120U A145C C150A C169U U176A", "label.class": "low-valued"}
{"mutation.list": "C82U A120G A145G C150A C169A", "label.class": "high-valued"}
{"mutation.list": "C82A A111C A145C C150G C169A", "label.class": "mid-valued"}
{"mutation.list": "C82G A111C A120G A145C C150A C169G U176G", "label.class": "low-valued"}
{"mutation.list": "C82U A120G A145G C150U C169A", "label.class": "high-valued"}
{"mutation.list": "C82A A111G C150A C169U", "label.class": "high-valued"}
{"mutation.list": "A111G A145U C169U", "label.class": "high-valued"}
{"mutation.list": "C82G A111G A120C A145C C169A", "label.class": "mid-valued"}
{"mutation.list": "C82U A111G A145G C150G U176A", "label.class": "mid-valued"}
{"mutation.list": "C82G A111G A120G A145G", "label.class": "high-valued"}
{"mutation.list": "C82A A111G A145C C169U", "label.class": "high-valued"}
{"mutation.list": "C82G A111U A120G C169A U176A", "label.class": "high-valued"}
{"mutation.list": "C82A A111U A120C A145G C150A C169G U176C", "label.class": "high-valued"}
{"mutation.list": "C82G A111G A120G A145U C169U U176C", "label.class": "high-valued"}
{"mutation.list": "C82G A120U A145G C150U C169A U176G", "label.class": "low-valued"}
{"mutation.list": "A111G A120G A145C C150U C169A U176A", "label.class": "high-valued"}
{"mutation.list": "A111G A145U C150G C169G", "label.class": "high-valued"}
{"mutation.list": "A111G A120U A145C C150A C169U", "label.class": "mid-valued"}
{"mutation.list": "C82U A111G A145G C150A C169A U176G", "label.class": "low-valued"}
{"mutation.list": "A111C A120G A145G C150U U176C", "label.class": "high-valued"}
{"mutation.list": "A111G A120C A145C C150U U176A", "label.class": "high-valued"}
{"mutation.list": "C82A A145U C150G C169U", "label.class": "mid-valued"}
{"mutation.list": "C82U A111C A120U A145G C150A C169A U176C", "label.class": "low-valued"}
{"mutation.list": "C82A A120U C150U C169A U176A", "label.class": "low-valued"}
{"mutation.list": "C82U A111C A120U C150U C169U U176G", "label.class": "low-valued"}
{"mutation.list": "C82U A111G A120U A145G C150U C169G U176G", "label.class": "low-valued"}
{"mutation.list": "C82A A111U A120C C150U C169A", "label.class": "high-valued"}
{"mutation.list": "C82G A111G C150U U176C", "label.class": "high-valued"}
{"mutation.list": "A111C A120U C150U C169A U176A", "label.class": "low-valued"}
{"mutation.list": "A111C A120C A145U C150U C169A U176A", "label.class": "high-valued"}
{"mutation.list": "C82U A111G A120C A145C C150U C169G U176G", "label.class": "low-valued"}
{"mutation.list": "C82G A111U A145C", "label.class": "high-valued"}
{"mutation.list": "C82G A111C A120C A145U C150G C169G", "label.class": "mid-valued"}
{"mutation.list": "A111C A120G A145G C150A C169U U176G", "label.class": "low-valued"}
{"mutation.list": "C82A A111C A120C A145C C169G U176G", "label.class": "mid-valued"}
{"mutation.list": "C82U A145G C150A C169A", "label.class": "high-valued"}
{"mutation.list": "C82A A120C A145C C150U C169G U176G", "label.class": "low-valued"}
{"mutation.list": "C82G A111G A120G A145C C150U C169A U176A", "label.class": "high-valued"}
{"mutation.list": "C82A A111U A120G C169A U176G", "label.class": "low-valued"}
{"mutation.list": "C82G A111U A120G A145G C150U C169G U176A", "label.class": "high-valued"}
{"mutation.list": "C82U A111G A120U A145U C150A C169G U176C", "label.class": "low-valued"}
{"mutation.list": "A111C A120C A145U C150U C169A", "label.class": "high-valued"}
{"mutation.list": "A111U A120G U176G", "label.class": "mid-valued"}
{"mutation.list": "C82A A111G A120U A145U C150U C169U U176C", "label.class": "low-valued"}
{"mutation.list": "C82G A120C A145G C150U C169A U176C", "label.class": "high-valued"}
{"mutation.list": "C82A A111G A120G A145U C169U U176A", "label.class": "high-valued"}
{"mutation.list": "A111U A120G C150G U176G", "label.class": "low-valued"}
{"mutation.list": "C82G A111U A120C A145G C150U C169A U176G", "label.class": "mid-valued"}
{"mutation.list": "A111U A120G A145C C150A C169G U176G", "label.class": "low-valued"}
{"mutation.list": "A145G C150A U176C", "label.class": "high-valued"}
{"mutation.list": "C82U A111U A120C A145G C150A C169U U176A", "label.class": "high-valued"}
{"mutation.list": "A111U A145G C150G C169A U176C", "label.class": "high-valued"}
{"mutation.list": "A111C A120U C169G", "label.class": "high-valued"}
{"mutation.list": "C82G A111U A120G A145G C150A C169U", "label.class": "mid-valued"}
{"mutation.list": "C82G A111C A120C A145C C150U C169U U176C", "label.class": "high-valued"}
{"mutation.list": "C82A A111C A120U A145G U176A", "label.class": "mid-valued"}
{"mutation.list": "C82U A111U A120C A145G C150A C169U U176C", "label.class": "high-valued"}
{"mutation.list": "C82U A145G U176A", "label.class": "high-valued"}
{"mutation.list": "C82G A111C A120C A145C C169A U176G", "label.class": "mid-valued"}
{"mutation.list": "C82A A111U A120G A145G C150U C169G U176A", "label.class": "high-valued"}
{"mutation.list": "A111G A120U A145C C169G U176G", "label.class": "low-valued"}
{"mutation.list": "C82G A111U C150A C169A U176C", "label.class": "high-valued"}
{"mutation.list": "C82A A111U A145G C150A C169G U176A", "label.class": "high-valued"}
{"mutation.list": "C82G A111C A120G A145C C150A C169U U176G", "label.class": "low-valued"}
{"mutation.list": "A111U A120C A145U C150A C169U U176G", "label.class": "low-valued"}
{"mutation.list": "C82G A111G A120G A145G C150U", "label.class": "high-valued"}
{"mutation.list": "C82G A145G C150G U176A", "label.class": "high-valued"}
{"mutation.list": "C82G A111U A145C C150U C169U", "label.class": "high-valued"}
{"mutation.list": "C82U A120U A145G C150U C169G", "label.class": "low-valued"}
{"mutation.list": "C150G C169G", "label.class": "high-valued"}
{"mutation.list": "C82G A111G A120G A145U C169U U176A", "label.class": "high-valued"}
{"mutation.list": "C82G A111C A120G A145G C150A U176G", "label.class": "mid-valued"}

Data credit: the RNAGym collection of RNA variant scans (doi:10.1093/molbev/msab373)
